- assayedSystem: UniProt:P17252
- Assay type: cell-based
- testConditions: sf9; further: in other assays of this panel Not Active means under 50% inhibition at 10 µM;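 further: inhibition of PKCalpha kinase activity measured in an enzyme assay with histone as the phosphorylation substrate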
measuredAttribute: IC50

compound: Cc1cc2cc3c(C)cc(=O)oc3c(C)c2o1 [TRIOXSALEN]
measuredAttribute: IC50
result: Not Active
//
compound: ClC(Cl)Cl [CHLOROFORM]
measuredAttribute: IC50
result: Not Active
//
compound: CCCC(CCC)C(=O)O [VALPROIC ACID]
measuredAttribute: IC50
result: Not Active
//
compound: C#C[C@]1(O)CC[C@H]2[C@@H]3CCc4cc(OC)ccc4[C@H]3CC[C@@]21C [MESTRANOL]
measuredAttribute: IC50
result: Not Active
//
compound: NC(=O)c1cnccn1 [PYRAZINAMIDE]
measuredAttribute: IC50
result: Not Active
//
compound: CN1CCC(=C2c3ccccc3C=Cc3ccccc32)CC1 [CYPROHEPTADINE]
measuredAttribute: IC50
result: Not Active
//
compound: COc1cc2c(c3oc(=O)c4c(c13)CCC4=O)[C@@H]1C=CO[C@@H]1O2 [AFLATOXIN]
measuredAttribute: IC50
result: Not Active
//
compound: CCN[C@@H]1C[C@H](N)[C@@H](O[C@H]2OC(CN)=CC[C@H]2N)[C@H](O)[C@H]1O[C@H]1OC[C@](C)(O)[C@H](NC)[C@H]1O [NETILMICIN]
measuredAttribute: IC50
result: Not Active

Return the recorded IC50 value; entry: CCn1cc(C(=O)O)c(=O)c2cc(F)c(N3CCN(C)CC3)cc21 [PEFLOXACIN] Not Active
